src = the RNAGym collection of RNA variant scans (doi:10.1021/acssynbio.7b00057)

B1: Pistol ribozyme (parent)
chain: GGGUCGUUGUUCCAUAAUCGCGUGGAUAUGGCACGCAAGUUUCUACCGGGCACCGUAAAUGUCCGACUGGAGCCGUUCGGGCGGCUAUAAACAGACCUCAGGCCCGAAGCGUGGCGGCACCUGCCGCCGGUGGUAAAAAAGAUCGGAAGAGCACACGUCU

Variants of: B1
Procedure text: aptazyme ON/OFF ratio, guanine; higher = stronger switching; co-transcriptional cleavage with and without guanine

>  <Mutation list>
U7A U8G G9A U10G C12U

>  <aptazyme ON/OFF ratio>
1.21

$$$$
>  <Mutation list>
U7C G9U U10A C13G

>  <aptazyme ON/OFF ratio>
1.04

$$$$
>  <Mutation list>
U7A U8G G9A U10C U11C C12U C13A

>  <aptazyme ON/OFF ratio>
1.06

$$$$
>  <Mutation list>
U7C U8G G9A U11A C13U

>  <aptazyme ON/OFF ratio>
1.19

$$$$
>  <Mutation list>
U7C G9U C12G

>  <aptazyme ON/OFF ratio>
1.14

$$$$
>  <Mutation list>
U7C U8A G9C U10C U11A C12G C13G

>  <aptazyme ON/OFF ratio>
1.1

$$$$
>  <Mutation list>
U7A U8C G9A U10C U11G C12U C13G

>  <aptazyme ON/OFF ratio>
1.35

$$$$
>  <Mutation list>
U7A U8G G9C U10G U11C C13G

>  <aptazyme ON/OFF ratio>
1.08

$$$$
>  <Mutation list>
U7C U8C U10G C12G C13U

>  <aptazyme ON/OFF ratio>
1.13

$$$$
>  <Mutation list>
U7A U8G G9C C12G C13G

>  <aptazyme ON/OFF ratio>
1.18

$$$$
>  <Mutation list>
U7A U8A G9C U10G U11G C12G C13A

>  <aptazyme ON/OFF ratio>
1.2

$$$$
>  <Mutation list>
U8G G9U U10G U11G C12U C13G

>  <aptazyme ON/OFF ratio>
1.09

$$$$
>  <Mutation list>
U7G U8A U10G U11A C12U C13U

>  <aptazyme ON/OFF ratio>
1.1

$$$$
>  <Mutation list>
U8G G9A U10C U11A C12U C13U

>  <aptazyme ON/OFF ratio>
1.05

$$$$
>  <Mutation list>
U7A U8A G9C U10C C12G

>  <aptazyme ON/OFF ratio>
1.04

$$$$
>  <Mutation list>
U8G G9A U10A U11C

>  <aptazyme ON/OFF ratio>
1.06

$$$$
>  <Mutation list>
U7A U8C G9A U10G U11A C12G C13G

>  <aptazyme ON/OFF ratio>
1.07

$$$$
>  <Mutation list>
U8G G9U C12A C13U

>  <aptazyme ON/OFF ratio>
1.07

$$$$
>  <Mutation list>
U7G U8C G9U U10A U11C C12U C13G

>  <aptazyme ON/OFF ratio>
1.25

$$$$
>  <Mutation list>
U7C G9C U10C U11G C12U C13A

>  <aptazyme ON/OFF ratio>
1.08

$$$$
>  <Mutation list>
U7G G9C U10C U11G C12G C13G

>  <aptazyme ON/OFF ratio>
1.08

$$$$
>  <Mutation list>
U7C U8A G9U U10C U11A C12U C13U

>  <aptazyme ON/OFF ratio>
1.15

$$$$
>  <Mutation list>
U7A U8C G9A U11G C12U C13A

>  <aptazyme ON/OFF ratio>
1.28

$$$$
>  <Mutation list>
U7C U8A U10G U11C C13G

>  <aptazyme ON/OFF ratio>
1.08

$$$$
>  <Mutation list>
U7G U11A C12G C13U

>  <aptazyme ON/OFF ratio>
1.12

$$$$
>  <Mutation list>
U7C U8G G9C U10C U11G C12U C13U

>  <aptazyme ON/OFF ratio>
1.07

$$$$
>  <Mutation list>
U7A U8A G9U U10A U11A C12U

>  <aptazyme ON/OFF ratio>
1.34

$$$$
>  <Mutation list>
U7A U8C G9U U11A C12A C13U

>  <aptazyme ON/OFF ratio>
1.33

$$$$
>  <Mutation list>
U8A G9U U10A C13U

>  <aptazyme ON/OFF ratio>
1.2

$$$$
>  <Mutation list>
G9C U10C U11A C12G

>  <aptazyme ON/OFF ratio>
1.14

$$$$
>  <Mutation list>
U8C G9C U10A U11C C12A

>  <aptazyme ON/OFF ratio>
1.24

$$$$
>  <Mutation list>
U7A U8A G9A U10C U11A C12U C13G

>  <aptazyme ON/OFF ratio>
1.16

$$$$
>  <Mutation list>
U7G U8G G9C U10G U11A C12U C13A

>  <aptazyme ON/OFF ratio>
1.13

$$$$
>  <Mutation list>
U8G G9U U10C C12U

>  <aptazyme ON/OFF ratio>
1.09

$$$$
>  <Mutation list>
U8C C12U C13G

>  <aptazyme ON/OFF ratio>
1.39

$$$$
>  <Mutation list>
U7A U8A U11G C12G C13A

>  <aptazyme ON/OFF ratio>
1.1

$$$$
>  <Mutation list>
U7C U8G G9C U10A U11C C12G C13U

>  <aptazyme ON/OFF ratio>
1.3

$$$$
>  <Mutation list>
U7G U8G U11G C12G C13U

>  <aptazyme ON/OFF ratio>
1.09

$$$$
>  <Mutation list>
U7A G9A U10C C13A

>  <aptazyme ON/OFF ratio>
1.06

$$$$
>  <Mutation list>
U7C U8A G9C U10A U11A C13A

>  <aptazyme ON/OFF ratio>
1.2

$$$$
>  <Mutation list>
U7A U8G G9C U10A U11G C12A

>  <aptazyme ON/OFF ratio>
1.07

$$$$
>  <Mutation list>
U7G U8A G9C U10A U11G

>  <aptazyme ON/OFF ratio>
1.05

$$$$
>  <Mutation list>
U7C U10G U11C C12A C13U

>  <aptazyme ON/OFF ratio>
1.18

$$$$
>  <Mutation list>
U7A G9U U10G U11A C12A C13G

>  <aptazyme ON/OFF ratio>
1.17

$$$$
>  <Mutation list>
U7A U10A

>  <aptazyme ON/OFF ratio>
1.11

$$$$
>  <Mutation list>
U7G G9C U10G U11A C12G C13G

>  <aptazyme ON/OFF ratio>
1.18

$$$$
